# assay.method.text: NCI Yeast Anticancer Drug Screen. Data for the cln2 rad14 strain (AID 165);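 also: 0% = growth equal to vehicle treated cultures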
# condition: S. cerevisiae cln2 rad14 strain, at 50.0 µM
This is part of a sample that, as a whole, favours compounds with a hit. Of some 79,000 tested, about 15% had one in any assay. Active and inactive are the calls of the source. Rule as the data show it: active = growth inhibition above about 70%; inactive = the rest.
Labels: active, inactive

compound	qualitative.label
Cn1cc(NC(=O)Nc2cc(C(=O)Nc3cc(C(=O)Nc4ccc5cc(S(=O)(=O)O)cc(S(=O)(=O)O)c5c4)n(C)c3)n(C)c2)cc1C(=O)Nc1cc(C(=O)Nc2ccc3cc(S(=O)(=O)O)cc(S(=O)(=O)O)c3c2)n(C)c1	active
CC(=O)c1ccc(Br)cc1NC1=CC(=O)c2ncccc2C1=O	active
COc1nc(Nc2ccc(/C=C/c3ccc(Nc4nc(OC)nc(N(CCO)CCO)n4)cc3S(=O)(=O)O)c(S(=O)(=O)O)c2)nc(N(CCO)CCO)n1	inactive
COC(=O)C1CCC(c2ccccc2)CC1C(=O)OC (stereo not given)	inactive
C/C(=N\NC(=S)NCc1ccccc1)c1nccnc1C	active
CCN(CC)C(=O)C1(OC(C)=O)CCCCC1	inactive
C/C(=N\NC(=S)N1CCN(Cc2ccccc2)CC1)c1ccccn1	inactive
Cc1ccnc(NC(c2ccccc2)c2ccc3cccnc3c2O)c1 (stereo not given)	active
COc1ccc(C2C3=C(CCCC3=O)Oc3cc4c(cc32)OCO4)cc1 (stereo not given)	active
Cc1c(NC(=O)C(=O)N=NC(=O)c2ccncc2)c(O)c2ccccc2c1O	active
CCCC(O)C[N+](=O)[O-] (stereo not given)	inactive
O=C1CC(c2ccccc2)C(=O)N2C(=O)CC(c3ccccc3)C(=O)N12 (stereo not given)	inactive
O=C1/C(=C/O)CCc2c1ccc1ccccc21	active
N#CC1=CN=C2C=CC=C3N=C(C(Cl)(Cl)Cl)N=C1N32	inactive
NNc1cc([N+](=O)[O-])ccc1Cl	inactive
CC(C)(C)CC(C)(C)c1ccc(OCCSC(=N)N)cc1	active
CN(C(=S)c1ccccc1)c1ccccc1	inactive
CC(=O)OCc1ccc(O)c2ncccc12	inactive
[N-]=[N+]=Nc1ccc(SSCCC(=O)ON2C(=O)CCC2=O)cc1	active
COc1ccc(C(c2cc3c(cc2O)OCO3)N2CCOCC2)cc1OC (stereo not given)	inactive
O=C(O)CCSSCCCCCS(=O)O	inactive
C=Cc1ccc(B2NCCO2)cc1	active
O=C(Nc1ccccc1)Oc1c(Cl)c(Cl)c(Cl)c(Cl)c1Cl	inactive
CC(C)(N=Nc1ccc([N+](=O)[O-])cc1)[N+](=O)[O-]	active
O=C(O)CCSCc1cc(C(=O)Nc2ccc(/C=C/c3ccc(NC(=O)c4cc(CSCCC(=O)O)c5cccnc5c4O)cc3S(=O)(=O)O)c(S(=O)(=O)O)c2)c(O)c2ncccc12	inactive
COCCCNC(=S)N/N=C/c1cc(Cl)cc(Cl)c1O	inactive
C[Si](C)(c1ccccc1)C1CC(=O)CC(=O)C1	inactive
COCCCNC(=O)SC	inactive
CC1(COc2ccccc2OCC2(C)CO2)CO1 (stereo not given)	active
Cc1cc2c(cc1C)[n+](=O)c(C(=O)C/C(=N/NC(=O)CC#N)C(=O)Nc1ccccc1C(F)(F)F)c(C)n2[O-]	active
CN(C)c1nc(=NCc2ccccc2)ss1	inactive
CC(=O)c1ccc(OCc2ccccc2)cc1	inactive
COC(=O)[C@@H]1c2cc3c(c(O)c2[C@@H](OC2OC(C)C(OC)C(C)(OC)C2OC)C[C@]1(C)O)C(=O)c1c(O)cc2c(c1C3=O)O[C@H]1O[C@]2(C)[C@H](O)[C@@H](N(C)C)[C@@H]1O (stereo not given in full)	active
COC1CCC(O)C(CO)O1 (stereo not given)	active
CCCN1C(=O)c2ccccc2C1=O	inactive

---

# assay.method.text: NCI Yeast Anticancer Drug Screen. Data for the bub3 strain (AID 167)
# condition: S. cerevisiae bub3 mutant strain, at 50.0 µM (retest, dose inferred, filed as 5.0), active compounds read high
Compounds without any hit were thinned out: in the full panel of roughly 79,000, 15% have a hit.
quantity.measured: growth inhibition (%)

> print(dat)
                                    compound  quantity.measured  meas.value
 1                    Brc1cc2ccccc2c2ccccc12  growth inhibition          81
 2  COc1ccc2nc3cc([N+](=O)[O-])ccc3c(NNc3ccc([N+](=O)[O-])cc3)c2c1  growth inhibition          -5
 3  S=C(NCCNC(=S)[S][Sn]([c]1ccccc1)([c]1ccccc1)[c]1ccccc1)[S][Sn]([c]1ccccc1)([c]1ccccc1)[c]1ccccc1  growth inhibition          94
 4  CCC(c1ccc(O)cc1)C(CC)c1ccc(O)c(O)c1 (stereo not given)  growth inhibition          98
 5  CC(=O)O[C@H]1CC[C@]2(C)C3=CC[C@]4(C)[C@@H](C(C)=O)CC[C@H]4[C@@]34C=C[C@]2(C1)C1C(=O)OC(=O)C14 (stereo not given in full)  growth inhibition           4
 6  C=C1CC(c2ccc(OCCCN3C(=O)c4ccccc4C3=O)c(OC)c2)OC1=O (stereo not given)  growth inhibition          95
 7  CC(=O)OC1(C)C(=C(Cl)Cl)C2c3ccccc3C1c1ccccc12 (stereo not given)  growth inhibition          93
 8                 CSC(=S)N/N=C(\C)c1nccnc1C  growth inhibition          98
 9  COC(CCC[N+](C)(C)C)CC[N+](C)(C)C (stereo not given)  growth inhibition          70
10  Cc1ccc(N=c2cc(-c3ccccc3)oc3ccccc23)c(C)c1  growth inhibition          94
11                  CSc1ccc(/C=N/NC(N)=S)cc1  growth inhibition          -3
12                                N#CSCCSC#N  growth inhibition          96
13            NC(=O)/C=C/C(=O)c1c(Cl)cccc1Cl  growth inhibition         100
14  CC(C(=O)O)c1cn(Cc2ccccc2)c2ccccc12 (stereo not given)  growth inhibition          80
15  Nc1nc(N)c2nc(CNc3ccc(C(=O)NC(CCC(=O)O)C(=O)O)cc3)cnc2n1 (stereo not given)  growth inhibition         -47
16  O=C1c2cc3c(cc2CC1Br)CCC3 (stereo not given)  growth inhibition          99
17  Cc1ccc(S(=O)(=O)Nc2ccc3c(c2)C(=O)c2ccccc2-3)cc1  growth inhibition          94
18  CC(=O)Nc1ccc2c(c1)[nH]c(=O)c1cc(Cl)ccc12  growth inhibition           7
19  O=C(OCC1OC(c2nn[nH]n2)C(OC(=O)c2ccccc2)C1OC(=O)c1ccccc1)c1ccccc1 (stereo not given)  growth inhibition          80
20  CC(=O)OC1CCC23COC(CC(C)C2C)C3(Br)C1 (stereo not given)  growth inhibition           1
21  O=C(NCCCCCNC(=O)C12CC3CC(CC(C3)C1)C2)C12CC3CC(CC(C3)C1)C2  growth inhibition           0
22  COc1ccc(/C=C/c2c[n+]([O-])ccc2[N+](=O)[O-])cc1  growth inhibition          97
23           Cc1ccc(S(=O)(=O)Nc2ccccc2Cl)cc1  growth inhibition          98
24        CC(C)N(C(=O)c1ccc(Cl)c(Cl)c1)C(C)C  growth inhibition         -25
25          O=C(CBr)c1ccc2cc(Br)c3ccccc3c2c1  growth inhibition          94
26  CSc1ncccc1C(=O)[O][Sn]([c]1ccccc1)([c]1ccccc1)[c]1ccccc1  growth inhibition          99
27  COCCN1C(=O)C2c3[nH]c4ccccc4c3C3CCC(C(C)(C)C)CC3C2C1=O (stereo not given)  growth inhibition          94
28  c1ccc(C[n+]2cccc(-c3cc4ccccc4[nH]3)c2)cc1  growth inhibition          -9
29  O=C(O)/C(Cl)=C(\Cl)C(=O)Nc1cccc(C(F)(F)F)c1  growth inhibition          99
30  COC(=O)c1[nH]c(=O)c(C#N)c(C(=O)OC)c1C(=O)c1ccc(Cl)c(Cl)c1  growth inhibition          90
31  CCC[CH2][Sn]1([CH2]CCC)[O]C(=O)CN=Cc2c(ccc3ccccc23)[O]1  growth inhibition          53
32  Cc1ccc(O)c(C(c2cccc(C(c3cc(C)ccc3O)c3cc(C)ccc3O)c2)c2cc(C)ccc2O)c1  growth inhibition          96
33  [N-]=[N+]=Nc1c(Cc2ccccc2)c(=O)oc2ccccc12  growth inhibition          87
34                 CSc1ccc2c(c1)S[S@@](=O)N2  growth inhibition          96
35      CC(=O)ON=C1C=CC(=C(C#N)c2ccccc2)C=C1  growth inhibition         100
